# system: Vasopressin V2 receptor (Oryctolagus cuniculus)
# experimental details: Binding affinity to vasopressin V2 receptor
pKi: −log10 of the molar value.

{"input smiles": "O=C(Nc1ccc(C(=O)N2CCCCc3ccccc32)cc1)c1ccccc1-c1ccccc1", "pKi": 8.12}
{"input smiles": "Cc1ccccc1C(=O)Nc1ccc(C(=O)N2CCCCc3ccccc32)cc1", "pKi": 8.14}

* * *

# experimental details: Binding affinity to vasopressin V2 receptor in rabbit kidney membranes
# Type: cell membranes, Oryctolagus cuniculus, Membrane
pKi: −log10 of the molar value.

{"input smiles": "O=C(Nc1ccc(C(=O)N2CCCCc3ccccc32)cc1)c1ccccc1-c1ccccc1", "pKi": 8.12}
{"input smiles": "Cc1ccccc1C(=O)Nc1ccc(C(=O)N2CCCCc3ccccc32)cc1", "pKi": 8.14}
